Overview of reported Cmax across a group of compounds:
- protocolSummary: Oral pharmacokinetics in Balb-c mice
- Assay type: in vivo
- cond: mouse, blood, female Balb-c mice, 100 mg kg^–1
Just the number in ng/mL, nothing appended.

[
  {
    "itemSmiles": "O=C(Cc1ccc(F)c(F)c1)N1CCC(Nc2ncc3c(N4CCOCC4)n[nH]c3n2)CC1",
    "Cmax, ng/mL": 5760
  }
]

# evaluate next
// `Clc1ccc(N2CCC(Nc3ncc4c(N5CCOCC5)n[nH]c4n3)CC2)nn1` : Cmax value = 5230

----------
- protocolSummary: Stability in mouse liver microsomes (intrinsic clearance)
- Format: in vitro ADME
- cond: mouse liver microsomal intrinsic clearance, 0.5 μM
quantityKind: Cli mouse (ml min^–1 g^–1)
Reply with just the number (in ml min^–1 g^–1).

Measured Cli mouse of `O=C(Cc1ccc(F)cc1F)N1CCC(Nc2ncc3c(C4CC4)n[nH]c3n2)CC1` : 5.0

Entry `CC(C)Cc1n[nH]c2nc(NC3CCN(C(=O)Cc4ccc(F)cc4F)CC3)ncc12` , Cli mouse reported as 12

GET /value?item= `COc1ccccc1-c1n[nH]c2nc(NC3CCN(C(=O)Cc4ccc(F)c(F)c4)CC3)ncc12` &field=Cli mouse returns 6.3

For `COc1ccccc1-c1n[nH]c2nc(NC3CCN(C(=O)Cc4ccc(F)cc4F)CC3)ncc12` the molecule record lists Cli mouse as 5.0

What the record says about `COc1ccccc1-c1n[nH]c2nc(NC3CCN(C(=O)OCc4ccccc4)CC3)ncc12` : Cli mouse is 9

----------
The following compounds are shown together with reported Cli mouse values.
- protocolSummary: Stability in mouse liver microsomes (intrinsic clearance)
- Type: in vitro ADME
- cond: mouse liver microsomal intrinsic clearance, 0.5 μM
// units = ml min^–1 g^–1; emit number, no label

Some solved entries appear below for comparison.
[
  {
    "itemSmiles": "O=C(Cc1ccc(F)cc1F)N1CCC(Nc2ncc3c(-c4ccccn4)n[nH]c3n2)CC1",
    "Cli mouse, ml min^–1 g^–1": 6.7
  },
  {
    "itemSmiles": "O=C(CC1CC1)N1CCC(Nc2ncc3c(C4CCOCC4)n[nH]c3n2)CC1",
    "Cli mouse, ml min^–1 g^–1": 0.8
  }
]

Please find the next compound below.
Form: compound = `O=C(Cc1ccc(F)cc1F)N1CCC(Nc2ncc3c(-c4ccccc4)n[nH]c3n2)CC1` ; Cli mouse = 7.2
